Data provenance: ChEMBL document CHEMBL1139395

For each of the compounds below, state its Ki.
assay.target: DNA gyrase (Staphylococcus aureus, UniProt P0A0K8+P20831)
Sequence (P0A0K8 whole entry): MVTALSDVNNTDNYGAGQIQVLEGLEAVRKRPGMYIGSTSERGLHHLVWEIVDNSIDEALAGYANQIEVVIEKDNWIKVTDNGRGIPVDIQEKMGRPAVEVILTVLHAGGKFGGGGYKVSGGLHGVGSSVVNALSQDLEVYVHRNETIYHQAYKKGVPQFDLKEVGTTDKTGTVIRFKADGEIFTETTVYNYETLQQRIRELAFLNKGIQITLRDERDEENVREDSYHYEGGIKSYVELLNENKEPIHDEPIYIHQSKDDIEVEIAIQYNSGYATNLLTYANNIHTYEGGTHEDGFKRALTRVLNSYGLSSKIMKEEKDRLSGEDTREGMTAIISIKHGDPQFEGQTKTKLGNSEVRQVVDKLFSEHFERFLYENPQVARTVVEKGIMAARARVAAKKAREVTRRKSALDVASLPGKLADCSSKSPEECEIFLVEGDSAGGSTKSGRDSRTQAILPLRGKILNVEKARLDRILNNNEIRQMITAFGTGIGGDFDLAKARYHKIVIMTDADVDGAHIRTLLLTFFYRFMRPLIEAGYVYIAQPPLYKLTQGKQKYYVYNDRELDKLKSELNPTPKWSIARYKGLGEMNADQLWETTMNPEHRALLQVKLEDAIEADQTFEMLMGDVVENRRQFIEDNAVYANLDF
Sequence (P20831 whole entry): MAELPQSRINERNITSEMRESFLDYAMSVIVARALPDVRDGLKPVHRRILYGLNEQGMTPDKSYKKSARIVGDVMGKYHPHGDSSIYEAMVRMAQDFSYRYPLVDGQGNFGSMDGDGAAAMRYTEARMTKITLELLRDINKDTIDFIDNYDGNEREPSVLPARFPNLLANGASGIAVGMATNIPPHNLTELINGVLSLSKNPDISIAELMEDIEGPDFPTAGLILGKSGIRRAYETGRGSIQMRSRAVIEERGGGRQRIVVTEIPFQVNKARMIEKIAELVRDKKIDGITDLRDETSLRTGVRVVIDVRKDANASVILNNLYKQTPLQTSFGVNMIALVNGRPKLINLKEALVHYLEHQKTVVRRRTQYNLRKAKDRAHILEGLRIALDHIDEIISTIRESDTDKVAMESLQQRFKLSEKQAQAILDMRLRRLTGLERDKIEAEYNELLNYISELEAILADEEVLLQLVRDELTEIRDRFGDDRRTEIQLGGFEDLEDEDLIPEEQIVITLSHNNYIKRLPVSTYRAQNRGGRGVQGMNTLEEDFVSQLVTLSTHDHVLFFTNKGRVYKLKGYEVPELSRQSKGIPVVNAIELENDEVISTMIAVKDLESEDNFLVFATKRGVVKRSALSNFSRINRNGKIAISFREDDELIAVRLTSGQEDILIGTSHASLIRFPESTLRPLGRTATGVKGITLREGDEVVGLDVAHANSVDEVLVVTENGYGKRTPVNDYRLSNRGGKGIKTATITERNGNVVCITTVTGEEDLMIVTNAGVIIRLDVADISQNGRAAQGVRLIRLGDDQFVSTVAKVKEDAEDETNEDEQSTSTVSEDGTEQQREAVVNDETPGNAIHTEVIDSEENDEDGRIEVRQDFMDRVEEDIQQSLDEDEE
test.protocol: Inhibition of Staphylococcus aureus DNA gyrase
Could you give the number and then its unit, please?

Your task in this section: give Ki for each listed record.
1. CCNC(=O)Nc1nc2cc(-c3cccnc3)cc(-n3cccn3)c2[nH]1
2. CCNC(=O)Nc1nc2cc(-c3cccnc3)c(C)cc2[nH]1
3. CCNC(=O)Nc1nc2cc(-n3cnc(C(=O)NC4CC4)c3)c(F)cc2[nH]1
4. CCNC(=O)Nc1nc2cc(-n3cnc(C(=O)NC4CC4)c3)cc(-c3ccccn3)c2[nH]1

Response:
1: 15 nM; 2: 85 nM; 3: 10 nM; 4: 12 nM

====

For each of the compounds below, state its MIC.
System: Staphylococcus aureus
test.protocol: Antibacterial activity against Staphylococcus aureus ATCC 29213 in absence of human serum
Assay type: functional
Numbers only, in µg/mL.

smiles.code | MIC / µg/mL
CCNC(=O)Nc1nc2cc(-c3cncnc3)cc(-n3cccn3)c2[nH]1 | 0.031

Alright, here's another compound for you.
Request: Any idea what MIC came out for CCNC(=O)Nc1nc2cc(-c3cccnc3)c(C)cc2[nH]1 on Staphylococcus aureus?
Response: 16

====

For each of the molecules below, state its MIC.
Test system: Staphylococcus aureus
test.protocol: Antibacterial activity against Staphylococcus aureus ATCC 29213 in presence of human serum
Type: functional
Give bare numbers, in µg/mL.

smiles.code | assay.target | parameter | observed.result
CCNC(=O)Nc1nc2cc(-c3cccnc3)cc(C(=O)OC)c2[nH]1 | Staphylococcus aureus | MIC | 0.5
CCNC(=O)Nc1nc2cc(-c3cccnc3)cc(-c3ncccc3F)c2[nH]1 | Staphylococcus aureus | MIC | 0.5
CCNC(=O)Nc1nc2cc(-c3ccn(C)c(=O)c3)cc(-c3ncccc3F)c2[nH]1 | Staphylococcus aureus | MIC | 0.032
CCNC(=O)Nc1nc2cc(-n3cnc(C(=O)NC4CC4)c3)cc(-c3ccccn3)c2[nH]1 | Staphylococcus aureus | MIC | 0.25
CCNC(=O)Nc1nc2cc(-c3cncnc3)ccc2[nH]1 | Staphylococcus aureus | MIC | 4

Alright, here's another molecule for you.
Request: What value of measured MIC is listed for CCNC(=O)Nc1nc2cc(-c3cccnc3)cc(-c3ccccn3)c2[nH]1 ?
Response: 2

====

System: Staphylococcus aureus
test.protocol: Antibacterial activity against Staphylococcus aureus ATCC 29213 in presence of human serum
Assay type: functional
For each of the molecules below, state its MIC.
One number for each entry, in µg/mL.

Would you please look over these solved cases?
smiles.code | MIC [µg/mL]
CCNC(=O)Nc1nc2cc(-c3cncnc3)cc(-n3cccn3)c2[nH]1 | 0.25
CCNC(=O)Nc1nc2cc(-n3cnc(C(=O)NC4CC4)c3)c(F)cc2[nH]1 | 8
CCNC(=O)Nc1nc2cc(-c3cccnc3)cc(-c3cccnc3)c2[nH]1 | 16

Alright, here's another molecule for you.
Request: Any idea what MIC came out for CCNC(=O)Nc1nc2cc(-c3cccnc3)cc(-n3cccn3)c2[nH]1 on Staphylococcus aureus?
Response: 4

====

test.protocol: Clearance in Sprague-Dawley rat
Type: ADME, organism-based
protocol.conditions: in vivo
parameter: clearance (mL/min/kg)
Answers are plain numbers, in mL/min/kg.

Request: What value of measured clearance is listed for CCNC(=O)Nc1nc2cc(-c3cccnc3)cc(-c3ncccc3F)c2[nH]1 ?
Response: 14.4

====

For each of the molecules below, state its MIC.
Test system: Staphylococcus aureus
test.protocol: Antibacterial activity against Staphylococcus aureus ATCC 29213 in absence of human serum
Format: functional
Answers are plain numbers, in µg/mL.

smiles.code | observed.result
CCNC(=O)Nc1nc2cc(-n3cnc(C(=O)NC4CC4)c3)c(F)cc2[nH]1 | 4
CCNC(=O)Nc1nc2cc(-c3cccnc3)cc(-c3ncccc3F)c2[nH]1 | 0.031
CCNC(=O)Nc1nc2cc(-c3cccnc3)cc(-c3cccnc3)c2[nH]1 | 4
CCNC(=O)Nc1nc2cc(-c3cccnc3)c(OC)cc2[nH]1 | 16

Your task in this section: give MIC for each listed record.
1. CCNC(=O)Nc1nc2cc(-c3cccnc3)cc(C(=O)OC)c2[nH]1
2. CCNC(=O)Nc1nc2cc(-c3cccnc3)cc(-n3cccn3)c2[nH]1
3. CCNC(=O)Nc1nc2cc(-c3cccnc3)c(N3CCCCC3)cc2[nH]1
4. CCNC(=O)Nc1nc2cc(-c3cccnc3)cc(C(=O)NC)c2[nH]1
5. CCNC(=O)Nc1nc2cc(-n3cnc(C(=O)NC4CC4)c3)cc(-c3ccccn3)c2[nH]1

Response:
1: 0.063; 2: 0.063; 3: 16; 4: 16; 5: 0.063

====

assay.target: DNA gyrase (Staphylococcus aureus, UniProt P0A0K8+P20831)
test.protocol: Inhibition of Staphylococcus aureus DNA gyrase
Assay type: protein-complex assay
parameter: pKi
Answers are plain numbers, as −log10 of the molar value.

Would you please look over these solved cases?
smiles.code | parameter | observed.result
CCNC(=O)Nc1nc2cc(-c3cccnc3)ccc2[nH]1 | pKi | 6.89
CCNC(=O)Nc1nc2cc(-c3cccnc3)cc(-c3ncccc3F)c2[nH]1 | pKi | 7.85

Your task in this section: give pKi for each listed record.
1. CCNC(=O)Nc1nc2cc(-c3cncnc3)cc(-n3cccn3)c2[nH]1
2. CCNC(=O)Nc1nc2cc(-c3ccccc3)ccc2[nH]1
3. CCNC(=O)Nc1nc2cc(-c3cccnc3)cc(-c3ccccn3)c2[nH]1
4. CCNC(=O)Nc1nc2cc(-c3cccnc3)cc(C(=O)NC)c2[nH]1

Response:
7.80
6.33
8.15
7.59

====

test.protocol: Half life in Sprague-Dawley rat
Assay type: ADME, organism-based
protocol.conditions: in vivo
parameter: half-life (min)
One number for each entry, in min.

Request: What value of measured half-life is listed for CCNC(=O)Nc1nc2cc(-c3cccnc3)cc(-c3ncccc3F)c2[nH]1 ?
Response: 42

====

Tested on: Staphylococcus aureus
test.protocol: Antibacterial activity against Staphylococcus aureus ATCC 29213 in absence of human serum
Format: functional
parameter: log10 MIC (log10 of the value in µg/mL)
All values: base-10 log of MIC in µg/mL.

Would you please look over these solved cases?
molecule | assay.target | log10 MIC
CCNC(=O)Nc1nc2cc(-c3ccn(C)c(=O)c3)cc(-c3ncccc3F)c2[nH]1 | Staphylococcus aureus | -1.80
CO[C@@H]1[C@@H](OC(N)=O)[C@@H](O)[C@H](Oc2ccc3c(O)c(NC(=O)c4ccc(O)c(CC=C(C)C)c4)c(=O)oc3c2C)OC1(C)C [NOVOBIOCIN] | Staphylococcus aureus | -0.90
CCNC(=O)Nc1nc2cc(-c3cccnc3)cc(OCc3ccccc3)c2[nH]1 | Staphylococcus aureus | 0.30
CCNC(=O)Nc1nc2cc(-c3cccnc3)c(F)cc2[nH]1 | Staphylococcus aureus | 0.00
CCNC(=O)Nc1nc2cc(-n3cnc(C(=O)NC4CC4)c3)cc(-n3cccn3)c2[nH]1 | Staphylococcus aureus | -0.30

Your task in this section: give log10 MIC for each listed record.
1. CCNC(=O)Nc1nc2cc(-c3cccnc3)cc(-c3ccccn3)c2[nH]1
2. CCNC(=O)Nc1nc2cc(-c3cnc(OC)nc3)c(OC)cc2[nH]1
3. CCNC(=O)Nc1nc2cc(-c3cccnc3)ccc2[nH]1
4. CCNC(=O)Nc1nc2cc(-c3cncnc3)ccc2[nH]1

Response:
1. -1.51
2. 0.30
3. 1.20
4. 0.60

====

Tested on: Staphylococcus aureus
test.protocol: Antibacterial activity against Staphylococcus aureus ATCC 29213 in presence of human serum
Assay type: functional
For each of the compounds below, state its MIC.
One number for each entry, in µg/mL.

Would you please look over these solved cases?
smiles.code | parameter | units | observed.result
CCNC(=O)Nc1nc2cc(-n3cnc(C(=O)NC4CC4)c3)cc(-n3cccn3)c2[nH]1 | MIC | µg/mL | 4
CCNC(=O)Nc1nc2cc(-c3cnc(OC)nc3)c(OC)cc2[nH]1 | MIC | µg/mL | 8

Alright, here's another compound for you.
Request: What value of measured MIC is listed for CCNC(=O)Nc1nc2cc(-c3cccnc3)c(F)cc2[nH]1 ?
Response: 16

====

For each of the compounds below, state its pKi.
assay.target: DNA gyrase (Staphylococcus aureus, UniProt P0A0K8+P20831)
test.protocol: Inhibition of Staphylococcus aureus DNA gyrase
Answers are plain numbers, as −log10 of the molar value.

Your task in this section: give pKi for each listed record.
1. CCNC(=O)Nc1nc2cc(-n3cnc(C(=O)NC4CC4)c3)cc(-n3cccn3)c2[nH]1
2. CCNC(=O)Nc1nc2cc(-c3cccnc3)c(F)cc2[nH]1

Response:
1: 8.00; 2: 7.42

Your task in this section: give pKi for each listed record.
1. CCOC(=O)Nc1nc2cc(/C=C/c3ccc(O)cc3)ccc2[nH]1
2. CCNC(=O)Nc1nc2cc(-c3cccnc3)cc(C(=O)OC)c2[nH]1
3. CCNC(=O)Nc1nc2cc(-c3cncnc3)ccc2[nH]1
4. CCNC(=O)Nc1nc2cc(-c3cccnc3)c(N3CCCCC3)cc2[nH]1

Response:
5.70
8.10
7.31
7.09

Your task in this section: give pKi for each listed record.
1. CCNC(=O)Nc1nc2cc(-c3ccn(C)c(=O)c3)cc(-c3ncccc3F)c2[nH]1
2. CCNC(=O)Nc1nc2cc(-c3cccnc3)cc(-c3cccnc3)c2[nH]1
3. CCNC(=O)Nc1nc2cc(-c3cnc(OC)nc3)c(OC)cc2[nH]1

Response:
7.64
7.77
7.36

Your task in this section: give pKi for each listed record.
1. CCNC(=O)Nc1nc2cc(-c3cccnc3)c(OC)cc2[nH]1
2. CCNC(=O)Nc1nc2cc(-c3cccnc3)cc(OCc3ccccc3)c2[nH]1

Response:
6.72
7.46
